pIC50 values recorded for JAK2 kinase (Homo sapiens (Human))
Recall that pIC50 is obtained by taking minus log10 of the concentration measured in molar.

Here are 2 molecules together with their reported answers.
[
  {
    "Smiles Representation": "CC(C)=CCNc1nc(Nc2cnn(C3CCOCC3)c2)ncc1C(N)=O",
    "Assay System": "JAK2 kinase (Homo sapiens (Human))",
    "pIC50": 9.05
  },
  {
    "Smiles Representation": "NC(=O)c1cnc(Nc2cnn(C3CCC3)c2)nc1NCc1c(F)cccc1F",
    "Assay System": "JAK2 kinase (Homo sapiens (Human))",
    "pIC50": 9.21
  }
]

Value of pIC50 reported for the molecule COc1cccc(F)c1CNc1nc(Nc2cnn(C(C)C)c2)ncc1C(N)=O is 9.21
